Molecular target: T1, CD123 (target of Example 19) (Homo sapiens (Human), UniProt P26951 19-305, limits assumed)
T1 sequence: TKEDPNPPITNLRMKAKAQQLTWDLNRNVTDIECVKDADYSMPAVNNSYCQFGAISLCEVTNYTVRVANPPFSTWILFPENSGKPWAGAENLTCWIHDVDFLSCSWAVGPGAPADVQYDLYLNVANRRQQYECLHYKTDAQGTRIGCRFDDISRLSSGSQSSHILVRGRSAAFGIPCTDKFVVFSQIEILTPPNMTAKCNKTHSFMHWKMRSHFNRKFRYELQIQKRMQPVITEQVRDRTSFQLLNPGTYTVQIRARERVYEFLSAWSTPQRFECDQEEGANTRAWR
Test: library selection; assay not described
readout.kind: binding result

SEQ ID NO 69 (designed binder) MGSWWEFTDRLEAIEDRLWALGGSEAELAHFEDSIAQFEQELQWYKGKGNPEVEALADEADAIESELHAYRHN: binds
SEQ ID NO 127 (designed binder) MGSWYEFSMRLDAIYDRLMALGGSEAELAAFEKEIAAFESELQAYKGKGNPEVEQLRGYAANIRNELQAYRHN: binds
SEQ ID NO 113 (designed binder) MGSWFEFWDRLDAIEDRLYALGGSEAELAAFEKEIAAFESELQAYKGKGNPEVEELRDEAAWIRGTLQAYRHN: binds
